The measured values listed here are drawn from paper PMC6117920.

# study.system: T1, recombinant human CHI3L1 (human, UniProt P36222 22-383)
# T1 construct: Chitinase 3-like-1 (CHI3L1, YKL-40), human, recombinant; also called rhCHI3L1; RhCHI3L1; source: bought: R&D Systems (Cat. #2599-CH)
# T1 sequence (P36222 22-383): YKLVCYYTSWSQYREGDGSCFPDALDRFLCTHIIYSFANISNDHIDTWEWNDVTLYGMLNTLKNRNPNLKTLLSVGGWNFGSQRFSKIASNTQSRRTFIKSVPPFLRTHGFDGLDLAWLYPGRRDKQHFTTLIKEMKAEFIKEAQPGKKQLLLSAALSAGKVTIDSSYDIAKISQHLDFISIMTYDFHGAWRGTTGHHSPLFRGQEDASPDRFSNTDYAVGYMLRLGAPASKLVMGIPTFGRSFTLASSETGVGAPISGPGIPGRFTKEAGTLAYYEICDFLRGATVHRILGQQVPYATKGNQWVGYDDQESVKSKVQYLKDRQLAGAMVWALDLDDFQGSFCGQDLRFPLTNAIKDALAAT
# protocol: BLI; Octet K2; CHI3L1 or IL-13Rα2 ECD immobilised on AR2G biosensor by amine coupling; CD44v3 peptide (15.6, 31.1, 62.5, 125, 250 μM) in the mobile phase; 20 mM HEPES, 150 mM NaCl, 0.05% Tween-20, 1 mM MgCl2 (or 5 mM EDTA); pH 7.4 in the results (pH 7.5 in the methods); heterogeneous ligand model
# measurement.conditions: both partners purified
assay.readout: pKd
Keep in mind that pKd stands for -log10 of concentration in molar terms.

## Task Please supply the value of reported pKd for the item GWEPNEENEDERDRHLSFSGSGIDDDEDFISSTI (peptide fragment of the v3 domain of CD44; contains the SGSG heparan sulfate assembly motif; also called peptide fragment of CD44v3 domain; source: synthetic peptide (ChinaPeptides Co., Ltd.)) [CD44v3 peptide]
## Result 3.35
